Reference source: patent US20180044434A1

Please go through the items and note down their OD 490/630 nm.
target: T1, Ala mutant of TA0096, SEQ ID NO: 43; experiment: ELISA, coated peptide
T1 peptide: EENMDDQWMQDEMEIGA

Input line: Record request: OD 490/630 nm value, item G8 (antibody, V domains shown, Chicken variable regions in a mouse chimeric antibody (IgG1); also called anti-PAD4 antibody G8) VH: AVTLDESGGGLQTPGGALSLVCKASGFTFSTYAMGWMRQAPGKGLEYVAAIRNDGSWTGYGAAVKGRATILRDNGQSTVRLQLSNLRAEDTGTYYCAKYTGSSGGSIGAWGHGTEVIVS VL: ASTQPSSVSANLGGTVEITCSGGNRNYYYGWYQQKSPGSAPVTLIYANDKRPSNIPSRFSGSKSGSTGTLTITGVQAEDEAVYFCGTADTGKYVFGAGTTLTVL
Output line: 1.92

Input line: Record request: OD 490/630 nm value, item G9 (antibody, V domains shown, Chicken variable regions in a mouse chimeric antibody (IgG1); also called anti-PAD4 antibody G9) VH: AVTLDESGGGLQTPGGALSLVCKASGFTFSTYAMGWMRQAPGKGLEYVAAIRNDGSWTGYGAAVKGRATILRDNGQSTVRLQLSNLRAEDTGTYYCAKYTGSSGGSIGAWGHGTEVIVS VL: AVTQPASVSANLGGTVEITCSGGGRYYYGWYQQKSPGSAPVTVIYANDKRPSDIPSRFSGSKSGSTGTLTITGVQAEDEAVYFCGSAETSSYVFGAGTTLTVL
Output line: 1.88

Input line: Record request: OD 490/630 nm value, item H7 (antibody, V domains shown, Chicken variable regions in a mouse chimeric antibody (IgG1); also called anti-PAD4 antibody H7) VH: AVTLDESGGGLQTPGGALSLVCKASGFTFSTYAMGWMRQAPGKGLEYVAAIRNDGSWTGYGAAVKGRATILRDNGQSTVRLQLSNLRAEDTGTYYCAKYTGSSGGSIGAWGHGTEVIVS VL: ASTQPSSVSANPGGTVEITCSGGSGRYYYGWYQQKSPGSAPVTVIYSSTHRPSNIPSRFSGSKSGSTATLTITGVQAEDEAVYFCGTADSSSYVFGAGTTLTVL
Output line: 1.87
